All values here come from ChEMBL document CHEMBL1926527.

Reported MIC values for the following compounds.
Tested on: Mycobacterium tuberculosis
Test: Antimycobacterial activity against Mycobacterium tuberculosis isolate 308 expressing rpoB His526Asp mutant gene by resazurin microtiter assay
Type: functional

// solved cases for MIC follow
CO[C@H]1/C=C/O[C@@]2(C)Oc3c(C)c(O)c4c(c3C2=O)C2=NC3(CCN(CC(C)C)CC3)N(C(C)=O)C2=C(NC(=O)/C(C)=C\C=C\[C@H](C)[C@H](O)[C@@H](C)[C@@H](O)[C@@H](C)[C@H](OC(C)=O)[C@@H]1C)C4=O; >2 µg/mL
CO[C@H]1/C=C/O[C@@]2(C)Oc3c(C)c(O)c4c(c3C2=O)C2=NC3(CCN(CC(C)C)CC3)NC2=C(NC(=O)/C(C)=C\C=C\[C@H](C)[C@H](O)[C@@H](C)[C@@H](O)[C@@H](C)[C@H](O)[C@@H]1C)C4=O; >2 µg/mL

Asked: Could you share which MIC value was measured for CO[C@H]1/C=C/O[C@@]2(C)Oc3c(C)c(O)c4c(O)c(c(/C=N/N5CCN(C)CC5)c(O)c4c3C2=O)NC(=O)/C(C)=C\C=C\[C@H](C)[C@H](O)[C@@H](C)[C@@H](O)[C@@H](C)[C@H](OC(C)=O)[C@@H]1C [RIFAMPIN] ?
Given back: >2 µg/mL

Asked: Could you share which MIC value was measured for "CO[C@H]1/C=C/O[C@@]2(C)Oc3c(C)c(O)c4c(c3[C@H]2O)C2=NC3(CCN(CC(C)C)CC3)NC2=C(NC(=O)/C(C)=C\C=C\[C@H](C)[C@H](O)[C@@H](C)[C@@H](O)[C@@H](C)[C@H](O)[C@@H]1C)C4=O" ?
Given back: >2 µg/mL
